# Test system: HT-1080
# assay.overview: Inhibition of cell adhesion in human HT-1080 cells
# Format: functional, cell-based
Positions of bridges follow the written chain, without caps; N, C: chain ends. Non-standard residues stand in square brackets, D forms with d. Residues, ends and D or L forms follow the SMILES beside them. Pen = CC(C)(S)[C@H](N)C(=O)O
readout.label: pIC50
Notebook: values listed as pIC50 are -log10 of the concentration (mol/L).

GET /values?readout=pIC50&item= CC(=O)N[C@H]1CSSC(C)(C)[C@@H](C(N)=O)NC(=O)[C@H](Cc2ccccc2)NC(=O)[C@H](CC(=O)O)NC(=O)CNC(=O)[C@H](CCCNC(=N)N)NC1=O (Ac-CRGDF[Pen]-NH2; disulfide 1-6) 7.00
